Would you mind telling me the reported TGI of each entry?
System: SF-268 CNS
assay-explanation: NCI tumour cell line growth inhibition, 48 h

Record FC1(F)SC2CCCCCCCCCCC2C1(F)F (stereo not given) , field TGI: > 100 µM

# compound O=C1CCCC1C(O)(C(F)(F)Cl)C(F)(F)Cl (stereo not given) ; its TGI = > 10 µM

Measured TGI, C/C(=N\Nc1nc2ccccc2[nH]1)c1ccc2ccccc2n1 : 14.3 µM

GET /value?item= NCCCCNCCCNC(=O)c1csc(-c2nc(CCN)sc2Cl)n1 &field=TGI returns > 100 µM

Just so you know, measured TGI for O=C1C=C(NCCc2ccc(O)cc2)C(=O)C=C1NCCc1ccc(O)cc1 came out at > 100 µM

For record Nc1c2c(c(O)c3c1=C(CO)C=N3)=NCCS2=O (stereo not given) the listed TGI is 3.27 µM

Consider COc1ccc(C(CC(=O)c2ccc(O)cc2)C(C(=O)c2ccc(O)cc2)C(c2ccc(OC)cc2)C2C(=O)NC(=S)NC2=O)cc1 (stereo not given) . Its measured TGI is 35.3 µM

TGI measured on O=C(Nc1ccccn1)c1cc2c(cc1Cl)Sc1nccn1S2(=O)=O = > 100 µM

// sample COC(=O)c1cc(OCc2cc(OCc3ccc(Br)cc3)cc(OCc3ccc(Br)cc3)c2)cc(OCc2cc(OCc3ccc(Br)cc3)cc(OCc3ccc(Br)cc3)c2)c1 , its TGI was > 100 µM

For Cc1nc(N(C)C)nc(-c2cccc(-c3ccn(CCN(C)C)n3)c2)c1C the compound record lists TGI as > 20 µM

Looking up Cc1csc(CP(=O)(OC(C)C)OC(C)C)n1 , I see its TGI listed as > 100 µM

Lab note: O=P1(NCCCl)OCCC(OO)N1CCCl (stereo not given) gave TGI of > 100 µM

Form field TGI, entry COc1ccc2c(C(=O)NCCCCCC(=O)O)cc3cc4c(cc3c2c1)OCO4 : > 100 µM

Entry Cc1cn(C2CC(/[N+]([O-])=N\Nc3ccc([N+](=O)[O-])cc3)C(CO)O2)c(=O)[nH]c1=O (stereo not given) ; TGI = > 100 µM

// TGI lookup, compound = CC(=O)SC(C[N+](=O)[O-])c1ccccc1 (stereo not given) , result: 22.6 µM

TGI for O=C(c1ccccc1)C(c1ccccc1)C1(O)C(=O)Nc2ccc(Br)cc21 (stereo not given) is > 100 µM

Value of measured TGI for the entry Cc1cccc(C)c1NC(=O)/C(CC(=O)CC(c1ccccc1)c1c(O)c2ccccc2oc1=O)=N/O (stereo not given) : > 100 µM

For this compound ( COc1ccc(-c2nc3ccccc3c(=O)[nH]2)cc1OC ), measured TGI is 60 µM

COc1cc2c(cc1OC)-c1c(c3ccc([N+](=O)[O-])cc3c(=O)n1CCCBr)C2=O yielded TGI of > 100 µM

Quick note, TGI for C=C(C)[C@H]1C=C[C@@H](OC(C)=O)[C@@]2(COC(C)=O)[C@H](OC(=O)CCC)[C@H]3[C@@H](OC(C)=O)[C@@H](C)C[C@]3(O)C(=O)[C@@](C)(OC(C)=O)[C@H]12 landed at > 100 µM

Cited source: PubChem BioAssay (NCI)
